Value source: PubChem BioAssay AID248

test system: L1210 leukemia ip in BDF1 mice, survival T/C; experiment: NCI In Vivo Anticancer Drug Screen. Data for tumor model L1210 Leukemia (intraperitoneal) in B6D2F1 (BDF1) mice; settings: endpoint: mean survival time; dose: 100.0 mg/kg/injection; schedule: Q01DX001 (ip); vehicle: carboxymethylcellulose (CMC); higher = longer survival
Toxic doses and inconclusive results are not listed.
assay_endpoint: T/C

Give T/C for each listed item.
1. O=C(O)c1ccc(C(Cl)C(Cl)(Cl)Cl)cc1O (stereo not given)
2. FC1C(F)(F)C(F)(F)C(F)(F)C(F)(F)C1(F)F
3. OC1OCC(OCc2ccccc2)C(OCc2ccccc2)C1OCc1ccccc1 (stereo not given)
4. Cc1ccccc1NC(=O)NO
5. COc1c2ccoc2nc2ccc3c(c12)C=CC(C)(C)O3

# output
["92 % of control", "97 % of control", "101 % of control", "103 % of control", "104 % of control"]

Give T/C for each listed item.
1. CS(=O)(=O)Oc1c(Cl)cc(Cl)c2cccnc12
2. CC1([N+](=O)[O-])COP(=O)(Nc2ccc(Cl)cc2)OC1 (stereo not given)
3. Cc1ccc(S(=O)(=O)N2Cc3ccc([N+](=O)[O-])cc3C2)cc1
4. CN(C)c1nc(N)nc2c1ncn2C1OC(CO)CC1O (stereo not given)
5. CCN(CC)CCC(O)c1cc(-c2ccc(Cl)cc2)nc2ccc(OC)cc12 (stereo not given)
6. CC(CC(CCC(=O)O)(c1ccccc1)c1ccccc1)N(C)C (stereo not given)
7. CCCc1cc(=O)c2ccccc2n1COC(C)=O

# output
1: 102 % of control; 2: 95 % of control; 3: 100 % of control; 4: 120 % of control; 5: 94 % of control; 6: 105 % of control; 7: 113 % of control
